# test system: human TLR9 (Homo sapiens (Human), UniProt Q9NR96)
# Sequence (Q9NR96 26-1032): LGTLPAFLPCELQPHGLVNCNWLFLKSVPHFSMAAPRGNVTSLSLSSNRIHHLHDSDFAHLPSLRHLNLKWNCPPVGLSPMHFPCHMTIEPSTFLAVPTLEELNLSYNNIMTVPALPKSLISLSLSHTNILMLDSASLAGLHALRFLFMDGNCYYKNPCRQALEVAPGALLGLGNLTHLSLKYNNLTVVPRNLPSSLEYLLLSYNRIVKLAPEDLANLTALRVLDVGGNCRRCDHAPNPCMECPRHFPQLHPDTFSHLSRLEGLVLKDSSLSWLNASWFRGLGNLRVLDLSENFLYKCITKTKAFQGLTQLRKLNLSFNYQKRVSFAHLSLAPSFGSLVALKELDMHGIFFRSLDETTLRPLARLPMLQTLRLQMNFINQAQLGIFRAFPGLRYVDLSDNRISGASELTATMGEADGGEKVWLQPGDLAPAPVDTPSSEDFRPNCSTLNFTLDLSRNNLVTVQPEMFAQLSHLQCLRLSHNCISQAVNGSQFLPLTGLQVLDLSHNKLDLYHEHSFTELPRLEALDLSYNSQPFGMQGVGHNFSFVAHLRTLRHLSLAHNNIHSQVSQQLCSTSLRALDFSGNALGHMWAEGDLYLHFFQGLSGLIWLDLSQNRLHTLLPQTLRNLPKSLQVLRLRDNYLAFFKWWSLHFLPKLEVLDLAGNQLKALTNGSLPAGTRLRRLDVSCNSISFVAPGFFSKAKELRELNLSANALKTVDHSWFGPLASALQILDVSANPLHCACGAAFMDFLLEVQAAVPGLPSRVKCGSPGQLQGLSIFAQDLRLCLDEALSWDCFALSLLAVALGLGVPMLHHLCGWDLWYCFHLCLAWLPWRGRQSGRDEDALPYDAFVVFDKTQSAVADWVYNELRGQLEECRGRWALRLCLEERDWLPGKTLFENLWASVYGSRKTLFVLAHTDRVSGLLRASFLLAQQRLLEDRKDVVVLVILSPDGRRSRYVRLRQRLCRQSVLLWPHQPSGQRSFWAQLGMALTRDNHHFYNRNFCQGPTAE
# protocol notes: TLR9 inhibition reporter assay (HEK-Blue SEAP);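 note: SEAP driven by an IFN-β minimal promoter with NF-κB and AP-1 sites, read after 22 h, compounds dosed 0.05 nM–50 µM, inhibition scaled between agonist plus DMSO and reference-inhibitor wells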
# experimental parameters: read-out: TLR9 IC50; HEK-Blue human TLR9 cells, ODN2006 5 nM
pIC50: −log10 of the molar value.
parameter measured: pIC50

compound string: Cc1c(-c2[nH]c3ccc(N4CCN(C(=O)CC(C)(C)N5CC6(COC6)C5)CC4)nc3c2C(C)C)cn2ncnc2c1C
experimental result: 5.11

compound string: Cc1c(-c2[nH]c3ccc(N4CCN(C(=O)CN5CCCC5)[C@@H](C)C4)nc3c2C(C)C)cn2ncnc2c1C
experimental result: 5.01
